system: Mus musculus; test: Compound was tested in vivo for its ability to inhibit spontaneous locomotor activity of mice after intraperitoneal administration; type: functional; conditions: ip
Numbered stars: 1 amine (or outer) side, 2 acyl side, 3 side chain; on linkers, the order of the positions; unused ones are H or OH. Square brackets hold non-standard residues; d marks the D form. Peptide text beside a SMILES is read from it. * marks the point of attachment. X1 = NCCCC[C@H](N)CN([C@@H](CCCCN)C(=O)[*:2])[*:1]; X7 = NC(N)=NCCCC(CCCN=C(N)N)C(=O)*; Tle = CC(C)(C)[C@H](N)C(=O)O; X4 = NCCCCC(CCCCN)C(=O)*; X5 = NCCCC(CCCN)C(=O)*
Reported ED50 values for a set of compounds
Kindly answer with a numeric value in mg/kg, unit omitted.

Known ED50 results, listed for orientation:
# Compound, ED50 [mg/kg]
records = [
    ("CC(C)C[C@H](NC(=O)[C@@H](NC(=O)[C@H](Cc1c[nH]c2ccccc12)NC(=O)[C@@H]1CCCN1C(=O)[C@H](CCCCN)NC[C@@H](N)CCCCN)C(C)(C)C)C(=O)O (H-[X1]PW[Tle]L-OH)", 0.14),
    ("CC[C@H](C)[C@H](NC(=O)[C@H](Cc1c[nH]c2ccccc12)NC(=O)[C@@H]1CCCN1C(=O)[C@H](CCCCN)NC[C@@H](N)CCCCN)C(=O)N[C@@H](CC(C)C)C(=O)O (H-[X1]PWIL-OH)", 6.3),
    ("CC(C)C[C@H](NC(=O)[C@@H](NC(=O)[C@H](Cc1c[nH]c2ccccc12)NC(=O)[C@@H]1CCCN1C(=O)C(CCCCN)CCCCN)C(C)(C)C)C(=O)O (X4-PW[Tle]L-OH)", 0.6),
    ("CC(C)C[C@H](NC(=O)[C@@H](NC(=O)[C@H](Cc1ccc(O)cc1)NC(=O)[C@@H]1CCCN1C(=O)[C@H](CCCCN)NC[C@@H](N)CCCCN)C(C)(C)C)C(=O)O (H-[X1]PY[Tle]L-OH)", 0.9),
    ("CCOC(=O)[C@H](CC(C)C)NC(=O)[C@@H](NC(=O)[C@H](Cc1c[nH]c2ccccc12)NC(=O)[C@@H]1CCCN1C(=O)[C@H](CCCCN)NC[C@@H](N)CCCCN)C(C)(C)C (H-[X1]PW[Tle]L-OEt)", 0.21),
    ("CC(C)C[C@H](NC(=O)[C@@H](NC(=O)[C@H](Cc1c[nH]c2ccccc12)NC(=O)[C@@H]1CCCN1C(=O)C(CCCN)CCCN)C(C)(C)C)C(=O)O (X5-PW[Tle]L-OH)", 0.5),
]

Kindly review the next compound as well.
For the compound CC(C)C[C@H](NC(=O)[C@@H](NC(=O)[C@H](Cc1c[nH]c2ccccc12)NC(=O)[C@@H]1CCCN1C(=O)C(CCCN=C(N)N)CCCN=C(N)N)C(C)(C)C)C(=O)O (X7-PW[Tle]L-OH) , report ED50.
1.5
